assay_info: Selectivity ratio of cytotoxicity against human WI38 cells to MIC for Acinetobacter baumannii ATCC 17978
Type: toxicity, cell-based
measured_quantity: selectivity ratio

[ask] // selectivity ratio lookup, key: COc1cc2c(cc1OCCCC(=O)Nc1cc(C(=O)Nc3ccc(-c4cc(C(=O)N5CCOCC5)n(C)c4)cc3)n(C)c1)N=C[C@@H]1CCCN1C2=O
[reply] 10

[ask] Also CCN(CC)C(=O)c1cc(-c2ccc(NC(=O)c3cc(NC(=O)CCCOc4cc5c(cc4OC)C(=O)N4CCC[C@H]4C=N5)cn3C)cc2)cn1C ?
[reply] 10

[ask] Also COc1cc2c(cc1OCCCC(=O)Nc1cc(C(=O)Nc3ccc4sc(C(=O)N5CCSCC5)cc4c3)n(C)c1)N=C[C@@H]1CCCN1C2=O ?
[reply] 10
